Task for the reader: assign each of the following molecules its reported normalised cell number.
- procedure-text: differential killing of epithelial or mesenchymal cells, primary screen, imaging, PC-3E GFP, TEM4-18 mCherry, co-culture (AID 1345086);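 note: cells exposed to compound for 72 h before imaging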
- reported-conditions: imaging cell counts, measured here: mesenchymal TEM4-18 mCherry cell survival, at 1 µM
Give bare numbers.

Study these solved cases before continuing.
>>> recorded_result("CCN(CC)CCOC(=O)C1(C2CCCCC2)CCCCC1")
1.66
>>> recorded_result("CC12CC3CC(C)(C1)CC(N)(C3)C2")
1
>>> recorded_result("CN[C@H]1CC[C@@H](c2ccc(Cl)c(Cl)c2)c2ccccc21")
1.05

Provide each entry's normalised cell number from the list below.
1. NNCCc1ccccc1
2. c1ccc2c(CC3=NCCN3)cccc2c1
3. CN1C(C(=O)Nc2ccccn2)=C(O)c2ccccc2S1(=O)=O
4. CN(C)CCCN1c2ccccc2CCc2ccccc21

1: 0.91; 2: 0.86; 3: 1.24; 4: 1.14
